Test: Cytotoxicity against mouse RAW264.7 cells assessed as reduction in cell viability at 25 uM measured after 48 hrs by MTT assay
Assay type: cell-based
Conditions: read-out: INH
Reported Endpoint: cytotoxicity at 48 h, 25 µM (%)
Just the number in %, nothing appended.

Example cases with answers are listed next.
COc1ccc(NC(=O)C2CC(C(=O)Nc3ccc(OC)cc3OC)N2NC(=O)c2ccncc2)c(OC)c1 (stereo not drawn) ... 48.9
Cc1cccc(C)c1NC(=O)C1CC(C(=O)Nc2c(C)cccc2C)N1NC(=O)c1ccncc1 (stereo not drawn) ... 26.6
O=C(NN1C(C(=O)Nc2nc3ccccc3s2)CC1C(=O)Nc1nc2ccccc2s1)c1ccncc1 (stereo not drawn) ... 34.7

Any idea what its cytotoxicity at 48 h, 25 µM is? The compound is Cc1cccc(NC(=O)C2CC(C(=O)Nc3cccc(C)n3)N2NC(=O)c2ccncc2)n1 (stereo not drawn)
3.89

Item under review: O=C(NN1C(C(=O)NCc2ccccc2)CC1C(=O)NCc1ccccc1)c1ccncc1 (stereo not drawn) . Reported cytotoxicity at 48 h, 25 µM?
49.3

Item under review: O=C(NN1C(C(=O)Nc2nc3ccccc3s2)CC1C(=O)Nc1nc2ccccc2s1)c1ccccc1 (stereo not drawn) . Reported cytotoxicity at 48 h, 25 µM?
12.3

Entry O=C(NN1C(C(=O)Nc2ccc(Cl)cc2)CC1C(=O)Nc1ccc(Cl)cc1)c1ccncc1 (stereo not drawn) has what cytotoxicity at 48 h, 25 µM?
32.9

Item under review: O=C(NN1C(C(=O)Nc2ccc(Cl)c(Cl)c2)CC1C(=O)Nc1ccc(Cl)c(Cl)c1)c1ccncc1 (stereo not drawn) . Reported cytotoxicity at 48 h, 25 µM?
49.5
